molecules and their reported inhibition
Experimental Target: Neuronal acetylcholine receptor subunit alpha-7 (Rattus norvegicus)
Assay Comment: Displacement of [3H]MLA from alpha-7 nAChR expressed in rat brain membrane at 100 nM
Number in %, nothing else.

// inhibition value for `Cc1cc[n+](CCCCc2ccc(CCCC[n+]3ccc(C)cc3)cc2)cc1` : 7.73

// inhibition value for `Cc1cc[n+](CCC#Cc2ccc(C#CCC[n+]3ccc(C)cc3)cc2)cc1` : 2.7

// inhibition value for `Cc1ccc[n+](CCC#Cc2ccc(C#CCC[n+]3cccc(C)c3)cc2)c1` : 3.1

* * *

Experimental Target: Neuronal acetylcholine receptor; alpha4/beta2 (Rattus norvegicus) (UniProt P09483+P12390)
Assay Comment: Displacement of [3H]NIC from alpha-4-beta-2 nAChR expressed in rat brain membrane at 100 nM
Label label 1 when inhibition is at or above 3%; otherwise label label 0.

Worked set:
Cc1cc[n+](CCCC#Cc2ccccc2C#CCCC[n+]2ccc(C)cc2)cc1	label 0
CN1CCC[C@H]1c1ccc[n+](CCCCCc2ccccc2CCCCC[n+]2cccc([C@@H]3CCCN3C)c2)c1	label 1
CN1CCC[C@H]1c1ccc[n+](CCCC#Cc2cccc(C#CCCC[n+]3cccc([C@@H]4CCCN4C)c3)c2)c1	label 1
CN1CCC[C@H]1c1ccc[n+](CCCC#Cc2ccccc2C#CCCC[n+]2cccc([C@@H]3CCCN3C)c2)c1	label 1
Cc1cc[n+](CCC#Cc2ccc(C#CCC[n+]3ccc(C)cc3)cc2)cc1	label 1
Cc1ccc[n+](CCCC#Cc2cccc(C#CCCC[n+]3cccc(C)c3)c2)c1	label 0
Cc1ccc[n+](CCCCc2ccc(CCCC[n+]3cccc(C)c3)cc2)c1	label 1
Cc1cc[n+](CCCC#Cc2cccc(C#CCCC[n+]3ccc(C)cc3)c2)cc1	label 1

Field: next compound
In: Given the entry `Cc1cc[n+](CCCCc2ccc(CCCC[n+]3ccc(C)cc3)cc2)cc1` , answer whether its inhibition meets or surpasses 3%.
Out: label 0

* * *

Experimental Target: Neuronal acetylcholine receptor subunit alpha-7 (Rattus norvegicus)
Assay Comment: Displacement of [3H]MLA from alpha-7 nAChR expressed in rat brain membrane at 100 nM
Label y when inhibition is at or above 5%; otherwise label n.

Worked set:
Cc1ccc[n+](CCCCCc2ccccc2CCCCC[n+]2cccc(C)c2)c1	y
Cc1cccc[n+]1CCCCCc1ccccc1CCCCC[n+]1ccccc1C	y
Cc1ccc[n+](CCCC#Cc2ccccc2C#CCCC[n+]2cccc(C)c2)c1	n
Cc1cccc[n+]1CCCCc1ccc(CCCC[n+]2ccccc2C)cc1	n

Field: next compound
In: Given the entry `CN1CCC[C@H]1c1ccc[n+](CCCC#Cc2ccccc2C#CCCC[n+]2cccc([C@@H]3CCCN3C)c2)c1` , answer whether its inhibition meets or surpasses 5%.
Out: y

* * *

Experimental Target: Neuronal acetylcholine receptor subunit alpha-7 (Rattus norvegicus)
Assay Comment: Displacement of [3H]MLA from alpha-7 nAChR expressed in rat brain membrane at 100 nM
molecules and their reported inhibition
Number in %, nothing else.

Cc1ccc[n+](CCCCc2ccc(CCCC[n+]3cccc(C)c3)cc2)c1	7.41

The molecule `Cc1cc[n+](CCCC#Cc2ccccc2C#CCCC[n+]2ccc(C)cc2)cc1` on Neuronal acetylcholine receptor subunit alpha-7 (Rattus norvegicus): inhibition was 5.4

* * *

Experimental Target: Neuronal acetylcholine receptor; alpha4/beta2 (Rattus norvegicus) (UniProt P09483+P12390)
Assay Comment: Displacement of [3H]NIC from alpha-4-beta-2 nAChR expressed in rat brain membrane at 100 nM
Reported Property: inhibition
Don't forget the unit after the number, please.

# example entries with known answers
Cc1ccc[n+](CCCCCc2ccccc2CCCCC[n+]2cccc(C)c2)c1	0%
Cc1ccc[n+](CCCCCc2cccc(CCCCC[n+]3cccc(C)c3)c2)c1	3.5%
Cc1cc[n+](CCCCCc2cccc(CCCCC[n+]3ccc(C)cc3)c2)cc1	4.6%

// inhibition value for `Cc1ccc[n+](CCC#Cc2ccc(C#CCC[n+]3cccc(C)c3)cc2)c1` : 13%

// inhibition value for `Cc1cccc[n+]1CCCCc1ccc(CCCC[n+]2ccccc2C)cc1` : 6.3%

* * *

Experimental Target: Neuronal acetylcholine receptor subunit alpha-7 (Rattus norvegicus) (UniProt Q05941)
Sequence (Q05941 whole entry): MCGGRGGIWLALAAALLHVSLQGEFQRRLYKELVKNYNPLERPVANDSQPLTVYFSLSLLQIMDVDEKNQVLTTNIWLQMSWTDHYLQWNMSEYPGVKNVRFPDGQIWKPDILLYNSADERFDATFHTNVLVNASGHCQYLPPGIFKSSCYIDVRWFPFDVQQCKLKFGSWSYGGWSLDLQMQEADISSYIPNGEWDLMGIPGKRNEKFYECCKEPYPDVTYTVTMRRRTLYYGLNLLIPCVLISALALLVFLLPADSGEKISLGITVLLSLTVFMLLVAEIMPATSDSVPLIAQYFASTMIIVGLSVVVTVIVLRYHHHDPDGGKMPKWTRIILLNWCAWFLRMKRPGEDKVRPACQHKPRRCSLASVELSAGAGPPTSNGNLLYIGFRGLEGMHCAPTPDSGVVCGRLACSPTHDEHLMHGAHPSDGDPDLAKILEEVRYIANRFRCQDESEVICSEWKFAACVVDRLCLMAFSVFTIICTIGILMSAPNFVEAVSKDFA
Assay Comment: Displacement of [3H]MLA from alpha-7 nAChR expressed in rat brain membrane at 100 nM
molecules and their reported inhibition
Don't forget the unit after the number, please.

# example entries with known answers
Cc1cccc[n+]1CCCCCc1cccc(CCCCC[n+]2ccccc2C)c1	0%
Cc1cccc[n+]1CCCC#Cc1ccccc1C#CCCC[n+]1ccccc1C	1.2%
CN1CCC[C@H]1c1ccc[n+](CCCC#Cc2cccc(C#CCCC[n+]3cccc([C@@H]4CCCN4C)c3)c2)c1	2.6%
Cc1cccc[n+]1CCCC#Cc1cccc(C#CCCC[n+]2ccccc2C)c1	0%
Cc1ccc[n+](CCCC#Cc2cccc(C#CCCC[n+]3cccc(C)c3)c2)c1	8%
CN1CCC[C@H]1c1ccc[n+](CCCCCc2ccccc2CCCCC[n+]2cccc([C@@H]3CCCN3C)c2)c1	11%

Please turn your attention to the following entry.
// inhibition value for `CN1CCC[C@H]1c1ccc[n+](CCCCc2ccc(CCCC[n+]3cccc([C@@H]4CCCN4C)c3)cc2)c1` : 5.3%
